All values here come from the supplement of paper PMC10065799.

Each entry below carries its reported phosphorylation enrichment.
- Tested on: c-Abl (mouse)
- EXPERIMENT DESCRIPTION: phosphorylation enrichment, bacterial display (enrichment ratio); higher = better substrate or ligand; peptides without Tyr show the background;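 note: 11-residue human phosphosite peptides and single-mutation variants displayed on the E. coli surface, counted by deep sequencing, each peptide's frequency after selection divided by its frequency in the unselected input library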;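 note: frequency after pTyr selection over input frequency; kinase dosed for 20-30% of maximal phosphorylation in three min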
I'd appreciate a reply containing only the number, no unit.

Take a look at these entries with their results.
RESIDUE SEQUENCE	phosphorylation enrichment
LGQRIYQYIRS [DYRK1B_Y271_Q275R]	2.38
FPCSVYMPDEW [INSR_Y1011_V1012M]	0.687
KAESWYQTKFE [KRT75_Y342_E337K_YF]	0.839

Using the record for MKGDFYRFLAE [YWHAG_Y131_YF] , report its phosphorylation enrichment. 0.596

// query: SVTCTYSPVLN [TP53_Y126_A129V] 0.804

Same thing, different sequence: DSEIRYLSADS [TTF1_Y476] 0.727

Similarly, LRSELYSLIAR [PHIP_Y16_F17S] ? 0.566

# repeat for YSTSPYLLEAA [BRIP1_Y921] 0.959

ITKNPYDPPGR ? 0.556

What do we get for VTQEQYELHCE [CBL_Y368_Y371H] ? 0.791

Try TVLGEYASPKG [CYP24A1_Y407_L409S] next. 3.4

Query LLQKTYNYNVL [SLC4A1_Y553_P548L] next 0.716

Now the same for CDFKKYGKGLR [ZNF445_Y433_Y428C_YF] 0.64

* * *

- ASSAYED SYSTEM: FGFR1 (UniProt P11362)
- Sequence (P11362 whole entry, looked up): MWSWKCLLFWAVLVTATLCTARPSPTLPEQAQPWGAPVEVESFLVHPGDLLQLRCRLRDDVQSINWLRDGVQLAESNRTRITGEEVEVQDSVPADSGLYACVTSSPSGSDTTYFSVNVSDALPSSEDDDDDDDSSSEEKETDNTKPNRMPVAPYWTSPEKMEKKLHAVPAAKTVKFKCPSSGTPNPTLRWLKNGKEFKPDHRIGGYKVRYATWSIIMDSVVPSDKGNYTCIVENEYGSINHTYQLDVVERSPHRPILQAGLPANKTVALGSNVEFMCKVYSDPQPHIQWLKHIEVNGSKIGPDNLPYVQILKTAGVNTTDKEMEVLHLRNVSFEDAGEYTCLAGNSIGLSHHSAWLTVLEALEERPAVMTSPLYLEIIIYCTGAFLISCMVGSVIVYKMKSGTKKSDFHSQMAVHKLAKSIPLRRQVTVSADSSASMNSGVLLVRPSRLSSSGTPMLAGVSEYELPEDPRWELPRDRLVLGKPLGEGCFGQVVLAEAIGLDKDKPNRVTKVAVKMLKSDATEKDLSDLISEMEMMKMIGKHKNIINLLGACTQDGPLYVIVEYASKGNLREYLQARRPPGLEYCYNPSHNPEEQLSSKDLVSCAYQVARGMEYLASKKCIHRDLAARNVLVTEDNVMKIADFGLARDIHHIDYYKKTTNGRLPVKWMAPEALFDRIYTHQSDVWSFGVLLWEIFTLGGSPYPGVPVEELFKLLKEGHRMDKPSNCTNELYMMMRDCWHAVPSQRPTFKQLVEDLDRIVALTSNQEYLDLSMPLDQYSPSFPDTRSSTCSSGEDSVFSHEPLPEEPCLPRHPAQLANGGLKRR
- EXPERIMENT DESCRIPTION: phosphorylation enrichment, bacterial display (enrichment ratio); higher = better substrate or ligand; peptides without Tyr show the background
So basically: phosphorylation enrichment at 0.6 or higher? That is MET. Lower than 0.6? That is NOT MET.

Solved entries (count: 3):
RESIDUE SEQUENCE	ASSIGNED CLASS
DRLASSLDKVR [KRT10_Y160_Y160S]	NOT MET
MFNPCYGLFEF [NEDD4L_Y680_Y679C_YF]	NOT MET
AEDKPYAELWM [MPI_Y46]	MET

Evaluate PARLEYYENEK [IRS1_Y46] : phosphorylation enrichment at minimum 0.6? NOT MET

// query: PELINYHQHNF [BTK_Y361_S366F] MET

Queued: CDFKKYGKGLR [ZNF445_Y433_Y428C_YF] NOT MET

Try this sequence next: KQLGEYKFQNA [ALB_Y425_E420K] NOT MET

Next: YSKTQYNQVPS [CXADR_Y318] NOT MET

Field entry: TEQDPSNNIVR [MMUT_Y364_Y364S] NOT MET

Also need KIKLNYTLPQD [NRAP_Y523_N519I] , thanks. NOT MET

Quick one: RLRKFYLGKFL [KLB_Y906_YF] MET

Now the sequence SSFSGYIMMPN [LEF1_Y114_YF] MET

* * *

Reported phosphorylation enrichment values are given for each entry in this list.
- ASSAYED SYSTEM: MERTK (UniProt Q12866)
- Sequence (Q12866 whole entry, looked up): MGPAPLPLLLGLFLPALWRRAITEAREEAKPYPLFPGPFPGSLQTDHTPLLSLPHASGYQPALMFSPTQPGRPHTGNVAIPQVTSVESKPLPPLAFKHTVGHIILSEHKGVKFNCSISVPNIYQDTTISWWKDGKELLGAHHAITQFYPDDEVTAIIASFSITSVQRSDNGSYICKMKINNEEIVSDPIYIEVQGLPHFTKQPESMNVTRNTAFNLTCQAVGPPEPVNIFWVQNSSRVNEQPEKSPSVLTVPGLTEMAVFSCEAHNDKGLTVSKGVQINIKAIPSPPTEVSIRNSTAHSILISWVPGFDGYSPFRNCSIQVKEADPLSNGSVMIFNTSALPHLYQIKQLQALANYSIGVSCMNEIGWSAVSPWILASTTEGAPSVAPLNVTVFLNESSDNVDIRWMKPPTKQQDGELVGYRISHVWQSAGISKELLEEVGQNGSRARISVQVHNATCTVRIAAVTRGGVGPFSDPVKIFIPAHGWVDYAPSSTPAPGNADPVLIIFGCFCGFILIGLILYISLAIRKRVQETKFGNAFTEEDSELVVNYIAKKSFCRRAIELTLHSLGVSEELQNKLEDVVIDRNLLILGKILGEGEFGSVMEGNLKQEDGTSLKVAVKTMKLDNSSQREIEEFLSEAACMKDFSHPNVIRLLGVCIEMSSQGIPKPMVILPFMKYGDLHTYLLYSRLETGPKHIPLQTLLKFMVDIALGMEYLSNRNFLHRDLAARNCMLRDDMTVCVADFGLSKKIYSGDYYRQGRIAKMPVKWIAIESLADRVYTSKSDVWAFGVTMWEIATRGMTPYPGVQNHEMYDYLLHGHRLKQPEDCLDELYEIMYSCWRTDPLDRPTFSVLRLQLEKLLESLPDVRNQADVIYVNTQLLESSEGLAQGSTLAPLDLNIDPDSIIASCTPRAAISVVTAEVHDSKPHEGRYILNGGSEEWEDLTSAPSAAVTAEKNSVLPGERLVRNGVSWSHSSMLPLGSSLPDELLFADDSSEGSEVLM
- EXPERIMENT DESCRIPTION: phosphorylation enrichment, bacterial display (enrichment ratio); higher = better substrate or ligand; peptides without Tyr show the background

Observe how each entry below is paired with its result.
RESIDUE SEQUENCE	ASSAYED SYSTEM	REPORTED
ATPKGYERDAS [OTC_Y223_P225R]	MERTK (UniProt Q12866)	0.447
KLMTEYKRRKQ [ARFGEF3_Y2029_K2031R]	MERTK (UniProt Q12866)	0.536
SKDQIYPMKLK [RANBP17_Y823]	MERTK (UniProt Q12866)	0.355
SGRSGYCLGTR [SCO1_Y60_P58S]	MERTK (UniProt Q12866)	0.55

Turning now to a further record.
Param item = KWRGQYDVANK [BTK_Y425_I429N] ; retrieve measured phosphorylation enrichment. 0.387

* * *

- ASSAYED SYSTEM: MERTK (UniProt Q12866)
- EXPERIMENT DESCRIPTION: phosphorylation enrichment, bacterial display (enrichment ratio); higher = better substrate or ligand; peptides without Tyr show the background
MEASUREMENT KIND: phosphorylation enrichment
Lab note: jot down the number only; don't add units.

RESIDUE SEQUENCE	phosphorylation enrichment
DFDNLYYWDQD [ERBB2_Y1221_A1216D]	7.57
GLGGGCGGASG [KRT8_Y54_Y54C]	0.384
SKNSKYNAGST [PSEN1_Y315_E318G]	0.536
RLLRGHDQSAY [HLA-C_Y137_Y137H]	0.371
CDFKKYGKGLR [ZNF445_Y433_Y428C_YF]	0.396
ATRKAYGQALA [TKT_Y321]	0.432
VGSIEYLKREW [KCNMA1_Y885]	0.38
VSTAVYKRFPS [BEST1_Y148]	0.526
LSFSEYASVQV [SIRPA_Y496_P491L]	0.671
IEPCIYIPEDD [XPNPEP3_Y455_G453C]	0.428

Quick check: phosphorylation enrichment of SVTCTYSPVLN [TP53_Y126_A129V] ? 0.435

Repeat with QQLVAYYSKHA [SRC_Y232] 0.944

* * *

- ASSAYED SYSTEM: Fes (UniProt P07332)
- Sequence (P07332 whole entry, looked up): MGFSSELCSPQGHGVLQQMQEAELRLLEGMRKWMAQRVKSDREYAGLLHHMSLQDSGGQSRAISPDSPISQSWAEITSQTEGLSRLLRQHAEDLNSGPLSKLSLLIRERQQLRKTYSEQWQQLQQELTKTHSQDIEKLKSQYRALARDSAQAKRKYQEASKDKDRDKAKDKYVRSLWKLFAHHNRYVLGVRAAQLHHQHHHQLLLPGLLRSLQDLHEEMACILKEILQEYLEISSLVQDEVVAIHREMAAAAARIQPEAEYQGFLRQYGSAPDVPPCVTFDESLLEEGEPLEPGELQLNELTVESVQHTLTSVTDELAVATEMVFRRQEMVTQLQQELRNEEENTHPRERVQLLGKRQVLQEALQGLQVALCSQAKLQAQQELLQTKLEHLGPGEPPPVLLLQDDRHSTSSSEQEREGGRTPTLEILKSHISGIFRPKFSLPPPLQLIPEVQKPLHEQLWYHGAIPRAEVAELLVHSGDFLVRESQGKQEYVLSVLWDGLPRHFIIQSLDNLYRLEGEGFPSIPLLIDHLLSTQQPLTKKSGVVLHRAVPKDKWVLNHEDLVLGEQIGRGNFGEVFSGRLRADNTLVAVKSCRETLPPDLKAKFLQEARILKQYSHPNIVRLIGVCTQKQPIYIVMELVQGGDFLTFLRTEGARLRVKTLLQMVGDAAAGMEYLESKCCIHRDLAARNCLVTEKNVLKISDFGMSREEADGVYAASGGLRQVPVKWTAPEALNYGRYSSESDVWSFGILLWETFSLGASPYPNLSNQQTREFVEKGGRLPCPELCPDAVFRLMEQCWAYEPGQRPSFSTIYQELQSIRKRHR
- EXPERIMENT DESCRIPTION: phosphorylation enrichment, bacterial display (enrichment ratio); higher = better substrate or ligand; peptides without Tyr show the background
Some sequences, each annotated with its measured phosphorylation enrichment.
I only need the number, thanks.

RESIDUE SEQUENCE	phosphorylation enrichment
QPEDIYHQTWA [GBA_Y244_G241E]	1.09
ASMAKYYASEI [ACADSB_Y372]	0.761
RIILLYIFLKN [STXBP1_Y411]	1.01

Here's the next entry for you.
Which value of phosphorylation enrichment has been reported for GPTLSYGRDGR [MATR3_Y158] in the records? 0.526

* * *

- Tested on: AncSZ
- EXPERIMENT DESCRIPTION: phosphorylation enrichment, bacterial display (enrichment ratio); higher = better substrate or ligand; peptides without Tyr show the background
MEASUREMENT KIND: phosphorylation enrichment
Respond numerically, and do not add a unit to the figure.

RESIDUE SEQUENCE	phosphorylation enrichment
FFRRHYPLTTL [TNS4_Y644]	0.995
LADKPYTFEYY [FXN_Y118_D122Y]	1
IENKLCGMSDP [RET_Y1062_Y1062C]	0.987
HRAVEYLLTGI [RAD23A_Y197]	0.991

// phosphorylation enrichment lookup, key: QTLTDYDTRFF [CSNK2A3_Y131_I133T_YF] 0.909

What do you have for SLNEGYAKDFD [FBP1_Y216_R218K] ? 1.02

* * *

- ASSAYED SYSTEM: Jak2 (UniProt O60674)
- Sequence (O60674 whole entry, looked up): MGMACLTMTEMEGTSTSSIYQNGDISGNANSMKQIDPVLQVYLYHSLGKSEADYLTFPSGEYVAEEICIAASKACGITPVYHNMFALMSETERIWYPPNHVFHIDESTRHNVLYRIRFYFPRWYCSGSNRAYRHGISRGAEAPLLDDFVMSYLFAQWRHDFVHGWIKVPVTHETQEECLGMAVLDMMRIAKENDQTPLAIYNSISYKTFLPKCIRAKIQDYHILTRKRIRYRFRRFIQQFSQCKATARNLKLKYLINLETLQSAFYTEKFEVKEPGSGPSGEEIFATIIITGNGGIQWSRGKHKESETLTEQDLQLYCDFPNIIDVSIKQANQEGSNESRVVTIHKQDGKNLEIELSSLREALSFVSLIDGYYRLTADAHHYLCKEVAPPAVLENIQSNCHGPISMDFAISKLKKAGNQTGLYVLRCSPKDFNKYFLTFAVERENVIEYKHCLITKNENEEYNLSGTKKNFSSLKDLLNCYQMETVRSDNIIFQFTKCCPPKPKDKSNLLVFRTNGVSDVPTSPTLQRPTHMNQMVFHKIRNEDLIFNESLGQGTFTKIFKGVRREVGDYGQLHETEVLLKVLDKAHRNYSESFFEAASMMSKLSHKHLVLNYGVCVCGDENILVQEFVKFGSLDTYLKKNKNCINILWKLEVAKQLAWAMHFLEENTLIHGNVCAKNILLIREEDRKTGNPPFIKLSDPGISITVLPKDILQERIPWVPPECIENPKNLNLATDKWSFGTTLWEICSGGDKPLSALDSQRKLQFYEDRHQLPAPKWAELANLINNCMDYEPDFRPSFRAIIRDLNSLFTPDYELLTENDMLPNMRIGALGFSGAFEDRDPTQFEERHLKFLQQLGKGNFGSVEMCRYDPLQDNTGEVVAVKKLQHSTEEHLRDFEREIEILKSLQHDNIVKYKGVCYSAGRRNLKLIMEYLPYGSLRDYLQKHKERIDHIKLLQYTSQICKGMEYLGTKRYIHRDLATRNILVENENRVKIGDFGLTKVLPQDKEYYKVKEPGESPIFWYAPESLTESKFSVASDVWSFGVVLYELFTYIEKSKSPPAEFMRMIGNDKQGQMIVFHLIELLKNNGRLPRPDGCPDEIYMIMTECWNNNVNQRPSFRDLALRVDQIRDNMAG
- EXPERIMENT DESCRIPTION: phosphorylation enrichment, bacterial display (enrichment ratio); higher = better substrate or ligand; peptides without Tyr show the background
The following sequences are listed with their measured phosphorylation enrichment values.
No unit in the answer, only the number.

Consider the worked cases shown below.
RESIDUE SEQUENCE	phosphorylation enrichment
EMFNPCFGLFE [NEDD4L_Y679_Y679C_YF]	1.41
KLMTEYKRRKQ [ARFGEF3_Y2029_K2031R]	0.458
QEALEYFMKQT [PIK3CA_Y1038_M1043T]	3.01
TVLGEYASPKG [CYP24A1_Y407_L409S]	0.561
IFRASYFRKGG [ALK_Y1282_YF]	1.11
NKEAICSGYIR [SMCHD1_Y283_Y283C]	0.875
AGDGRYEVLFL [SEMA3F_Y478_A474G]	0.927
FAREGYSALPQ [SARS2_Y52_YF]	0.652
YQKDVYNIPPS [NEDD9_Y177_D178N]	0.805
YKRAVYCIIGR [NUP93_Y391]	0.599

Data request, read-out phosphorylation enrichment, for PSVVAYPKRSQ [MARK3_Y432] 0.531

Would you kindly repeat that for RSPLRYTSILT [OR51B6_Y130] ? 0.655

Here is the next sequence: IGCHAYGDQYR [IDH1_Y135_R132C] 0.979

Also need YISLIYTNYEV [GSTP1_Y109_A114V] , thanks. 1.54

What do you have for MSRLKYPVSQQ [BTK_Y375_I370M] ? 0.54

Repeat for the following sequence: TGDFGYRTPGY [TNS2_Y668_A670T] 0.484

Follow-up entry: PNAFIYVVQLP [L1CAM_Y420_A415P_YF] 1.26

Now try MSRNLYSGDYY [DDR2_Y736] . 1.64

* * *

- ASSAYED SYSTEM: Fyn (UniProt P06241)
- Sequence (P06241 whole entry, looked up): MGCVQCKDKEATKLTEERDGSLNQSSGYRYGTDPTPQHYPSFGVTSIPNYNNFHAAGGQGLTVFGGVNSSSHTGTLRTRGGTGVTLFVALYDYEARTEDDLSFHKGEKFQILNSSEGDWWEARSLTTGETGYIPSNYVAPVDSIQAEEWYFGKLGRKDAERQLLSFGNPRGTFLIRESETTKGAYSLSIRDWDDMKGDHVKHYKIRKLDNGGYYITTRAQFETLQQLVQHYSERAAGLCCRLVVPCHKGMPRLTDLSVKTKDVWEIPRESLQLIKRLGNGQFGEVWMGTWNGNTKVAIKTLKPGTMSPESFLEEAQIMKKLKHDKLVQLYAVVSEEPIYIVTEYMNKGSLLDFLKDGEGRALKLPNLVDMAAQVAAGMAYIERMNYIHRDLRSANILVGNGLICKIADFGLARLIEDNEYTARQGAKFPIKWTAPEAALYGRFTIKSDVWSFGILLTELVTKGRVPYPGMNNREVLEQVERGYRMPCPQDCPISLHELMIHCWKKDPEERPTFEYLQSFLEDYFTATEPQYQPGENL
- EXPERIMENT DESCRIPTION: phosphorylation enrichment, bacterial display (enrichment ratio); higher = better substrate or ligand; peptides without Tyr show the background
phosphorylation enrichment listing for selected sequences.

Query for Fyn (UniProt P06241): what phosphorylation enrichment does the record show for FEPWVYSFSYE [PRKDC_Y647] ? 6.53

Would you kindly repeat that for QAFSWYQHQRA [NDST1_Y714_R709Q_YF] ? 0.658

Try this sequence too: LTTEAYEWEPC [ELMOD3_Y61_R66C] 1.58
